target: T1, PSMA Fab (006 PSMA Fab); experiment: phage ELISA; clonal phage supernatant on biotinylated PSMA Fab captured on neutravidin plate, anti-M13 HRP detection
T1 construct: also called Anti-PSMA Fab; anti-PSMA Fab
valueKind: Phage binding ELISA signal, Anti-PSMA Fab

Past entries and their recorded results:
binder: TPIFCVPAWMCSGF (tested as crude phage supernatant) [Phage-2925]
result: 2.31
//
binder: TQALCVPSWMCDGF (tested as crude phage supernatant) [Phage-2930]
result: 2.3
//
binder: VPKMCTPPWMCWGF (tested as crude phage supernatant) [Phage-2923]
result: 2.31
//
binder: VGKMCVPEWMCHGF (tested as crude phage supernatant) [Phage-2924]
result: 2.31
//
binder: ISHMCKPVWMCSGL (tested as crude phage supernatant) [Phage-2921]
result: 2.31
//
binder: IVPACKPVWMCDGF (tested as crude phage supernatant) [Phage-2928]
result: 2.31

Query block: Suppose we examine the binder NIPHCVPAWMCIGF (tested as crude phage supernatant) [Phage-2929] ; what Phage binding ELISA signal, Anti-PSMA Fab value has been reported?
Result block: 2.31

Query block: Would you kindly share the measured Phage binding ELISA signal, Anti-PSMA Fab for IKPFCVPEWMCVAL (tested as crude phage supernatant) [Phage-2927] ?
Result block: 2.31

Query block: Given MHMLCRPAWMCSGF (tested as crude phage supernatant) [Phage-2932] , state its recorded Phage binding ELISA signal, Anti-PSMA Fab.
Result block: 2.29

Query block: Record request: Phage binding ELISA signal, Anti-PSMA Fab value, item VEQMCKPEWMCKGF (tested as crude phage supernatant) [Phage-2931]
Result block: 2.3

Query block: Requested field: Phage binding ELISA signal, Anti-PSMA Fab. Item: VDRMCKPTWMCEGF (tested as crude phage supernatant) [Phage-2926]
Result block: 2.31
